# system: UniProt P03428
# Sequence (P03428 whole entry, looked up): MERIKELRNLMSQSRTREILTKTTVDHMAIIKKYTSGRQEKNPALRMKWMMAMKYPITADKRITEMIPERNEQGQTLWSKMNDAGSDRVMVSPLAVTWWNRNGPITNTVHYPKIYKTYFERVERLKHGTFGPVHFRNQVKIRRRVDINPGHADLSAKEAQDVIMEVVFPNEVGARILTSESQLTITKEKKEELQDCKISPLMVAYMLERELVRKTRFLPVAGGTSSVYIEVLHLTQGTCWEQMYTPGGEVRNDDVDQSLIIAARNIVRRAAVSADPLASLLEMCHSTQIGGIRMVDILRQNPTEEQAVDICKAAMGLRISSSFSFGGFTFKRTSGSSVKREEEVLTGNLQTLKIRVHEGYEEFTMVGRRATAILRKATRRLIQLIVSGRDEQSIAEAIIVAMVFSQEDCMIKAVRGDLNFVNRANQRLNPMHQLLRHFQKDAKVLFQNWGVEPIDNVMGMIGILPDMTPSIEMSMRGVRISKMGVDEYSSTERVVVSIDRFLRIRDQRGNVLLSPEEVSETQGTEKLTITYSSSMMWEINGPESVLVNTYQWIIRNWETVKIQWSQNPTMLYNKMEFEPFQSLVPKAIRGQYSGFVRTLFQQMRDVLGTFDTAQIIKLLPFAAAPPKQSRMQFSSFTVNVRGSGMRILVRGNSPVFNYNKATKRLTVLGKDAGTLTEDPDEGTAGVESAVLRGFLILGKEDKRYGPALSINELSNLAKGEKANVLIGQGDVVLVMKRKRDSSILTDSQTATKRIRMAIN
Readings of IC50 for the listed molecules

molecule | IC50
COC(=O)[C@H](C)NC(=O)Cn1ccc2cnc(-c3c[nH]c4ncc(F)cc34)nc21 [Compound B7] | > 100 µM
COC(=O)[C@H]1CCCN1C(=O)Cn1ccc2c(-c3c[nH]c4ncc(F)cc34)ncnc21 [Compound A15] | > 100 µM
CCOC(=O)[C@@H]1C2CCC(CC2)[C@H]1n1cc(-c2ccncc2)c2cnc(-c3c[nH]c4ncc(F)cc34)nc21 [Compound B176] | 10 to 100 µM
C[C@]1(C(=O)O)CCCC[C@@H]1n1ccc2cnc(-c3c[nH]c4ncc(F)cc34)nc21 [Compound B71] | < 1 µM
CCOC(=O)[C@@H]1C2CCC(CC2)[C@H]1n1cc(CCCCC#N)c2cnc(-c3c[nH]c4ncc(F)cc34)nc21 [Compound B202] | > 100 µM
COC(=O)CCn1ccc2c(-c3c[nH]c4ncc(F)cc34)ncnc21 [Compound A2] | 10 to 100 µM
CNC(=O)N[C@H]1C2CCC(CC2)[C@@H]1n1cc(Cl)c2cnc(-c3c[nH]c4ncc(F)cc34)nc21 [Compound B168] | 1 to 10 µM
CCOC(=O)[C@@H]1C2CCC(CC2)[C@H]1n1cc(C#CC2CC2)c2cnc(-c3c[nH]c4ncc(F)cc34)nc21 [Compound B154] | 10 to 100 µM
CCOCCCCCOCCN(C)C(=O)N[C@@H]1CCC[C@H](n2ccc3cnc(-c4c[nH]c5ncc(F)cc45)nc32)C1 [Compound B41] | 10 to 100 µM
N[C@H]1C2CCC(CC2)[C@@H]1n1cc(Cl)c2cnc(-c3c[nH]c4ncc(F)cc34)nc21 [Compound B167] | 1 to 10 µM
CCOC(=O)[C@H]1C2CCC(CC2)[C@@H]1n1cc(F)c2cnc(-c3c[nH]c4ncc(Cl)cc34)nc21 [Compound B134] | > 100 µM
C[C@@]1(C(=O)O)CCCC[C@@H]1n1cc(Cl)c2cnc(-c3c[nH]c4ncc(F)cc34)nc21 [Compound B83] | 1 to 10 µM
CCOCCOCCOCCNC(=O)[C@@H]1CCCC[C@@H]1n1ccc2cnc(-c3c[nH]c4ncc(F)cc34)nc21 [Compound B30] | 10 to 100 µM
O=C(O)[C@@H]1C2CCC(CC2)C1n1cc(Cl)c2cnc(-c3c[nH]c4ncc(Cl)cc34)nc21 (single isomer, unassigned) [Compound B136] | 1 to 10 µM
COC(=O)CCn1cc(-c2c[nH]c3ncc(F)cc23)c2cncnc21 [Compound C3] | > 100 µM
N#Cc1cn([C@@H]2C3CCC(CC3)[C@H]2C(=O)O)c2nc(-c3c[nH]c4ncc(Cl)cc34)ncc12 [Compound B191] | < 1 µM
CC(Cn1cc(-c2c[nH]c3ncc(F)cc23)c2cncnc21)C(=O)N(C)C (stereo not shown) [Compound C6] | 10 to 100 µM
O=C(O)[C@@H]1C2CCC(CC2)C1n1cc(-c2ccncc2)c2cnc(-c3c[nH]c4ncc(Cl)cc34)nc21 (single isomer, unassigned) [Compound B189] | 1 to 10 µM
CCCCCOCCCCCN(C)C(=O)N[C@@H]1CCC[C@H](n2ccc3cnc(-c4c[nH]c5ncc(F)cc45)nc32)C1 [Compound B44] | > 100 µM
O=C(O)C1=C(n2cc(F)c3cnc(-c4c[nH]c5ncc(F)cc45)nc32)C2CCC1CC2 [Compound B222] | < 1 µM
CN(C)C(=O)N[C@H]1CC[C@H](n2ccc3cnc(-c4c[nH]c5ncc(F)cc45)nc32)CC1 [Compound B80] | > 100 µM
CC(C)c1cn([C@@H]2C3CCC(CC3)[C@H]2C(=O)O)c2nc(-c3c[nH]c4ncc(F)cc34)ncc12 [Compound B175] | < 1 µM
